Numbers sourced from ChEMBL document CHEMBL5356956.

Biological target: CYP2C9 (Homo sapiens, UniProt P11712)
Sequence (P11712 whole entry): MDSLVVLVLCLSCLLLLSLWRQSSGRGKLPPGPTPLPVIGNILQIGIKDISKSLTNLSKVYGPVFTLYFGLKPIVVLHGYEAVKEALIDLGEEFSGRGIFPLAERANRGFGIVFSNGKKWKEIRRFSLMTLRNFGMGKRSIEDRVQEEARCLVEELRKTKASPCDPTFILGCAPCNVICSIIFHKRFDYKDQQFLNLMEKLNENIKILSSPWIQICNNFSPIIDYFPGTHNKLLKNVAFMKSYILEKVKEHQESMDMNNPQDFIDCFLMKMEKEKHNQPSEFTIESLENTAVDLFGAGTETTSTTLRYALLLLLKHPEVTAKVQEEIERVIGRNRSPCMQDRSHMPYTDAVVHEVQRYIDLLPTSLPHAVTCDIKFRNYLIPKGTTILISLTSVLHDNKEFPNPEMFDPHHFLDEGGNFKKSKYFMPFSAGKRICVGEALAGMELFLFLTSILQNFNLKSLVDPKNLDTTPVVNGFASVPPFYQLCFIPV
Test: Inhibition of CYP2C9 (unknown origin) at 10 uM relative to control
Format: ADME
Answer each item with its documented inhibition at 10 µM.
Dear colleague, please return just the value in %, with no unit written.

I have this compound here, O=C(c1nn(-c2ccccc2Cl)c(-c2ccc(Cl)cc2)c1Cc1nn[nH]n1)N1CCC(Oc2ccc(OC(F)(F)F)cc2)CC1 , and I need its recorded inhibition at 10 µM. 48

Fill in the blank: the reported inhibition at 10 µM of O=C(c1nn(-c2ccccc2Cl)c(-c2ccc(Cl)cc2)c1Cc1nn[nH]n1)N1CCC(Oc2ccc(F)c(F)c2)CC1 is ____. 0

Requested field: inhibition at 10 µM. Item: O=C(c1nn(-c2ccccc2Cl)c(-c2ccc(Cl)cc2)c1Cc1nn[nH]n1)N1CCC(Oc2cc(F)cc(F)c2)CC1 32

inhibition at 10 µM lookup needed for O=C(c1nn(-c2ccccc2Cl)c(-c2ccc(Cl)cc2)c1Cc1nn[nH]n1)N1CCC(Oc2cccc(F)c2)CC1 , thanks. 14

Which value of inhibition at 10 µM has been reported for C[C@@H](NC(=O)c1nn(-c2ccccc2Cl)c(-c2ccc(Cl)cc2)c1Cc1nn[nH]n1)c1ccc(C(F)(F)F)cc1 in the records? 39

Param item = O=C(c1nn(-c2ccccc2Cl)c(-c2ccc(Cl)cc2)c1Cc1nn[nH]n1)N1CCC(Oc2cccc(Cl)c2)CC1 ; retrieve measured inhibition at 10 µM. 35

Requested read-out: inhibition at 10 µM. Entry: O=C(c1nn(-c2ccccc2Cl)c(-c2ccc(Cl)cc2)c1Cc1nn[nH]n1)N1CCC(Oc2ccc(Cl)cc2)CC1 38

###

Biological target: Cannabinoid receptor 1 (Homo sapiens, UniProt P21554)
Sequence (P21554 whole entry): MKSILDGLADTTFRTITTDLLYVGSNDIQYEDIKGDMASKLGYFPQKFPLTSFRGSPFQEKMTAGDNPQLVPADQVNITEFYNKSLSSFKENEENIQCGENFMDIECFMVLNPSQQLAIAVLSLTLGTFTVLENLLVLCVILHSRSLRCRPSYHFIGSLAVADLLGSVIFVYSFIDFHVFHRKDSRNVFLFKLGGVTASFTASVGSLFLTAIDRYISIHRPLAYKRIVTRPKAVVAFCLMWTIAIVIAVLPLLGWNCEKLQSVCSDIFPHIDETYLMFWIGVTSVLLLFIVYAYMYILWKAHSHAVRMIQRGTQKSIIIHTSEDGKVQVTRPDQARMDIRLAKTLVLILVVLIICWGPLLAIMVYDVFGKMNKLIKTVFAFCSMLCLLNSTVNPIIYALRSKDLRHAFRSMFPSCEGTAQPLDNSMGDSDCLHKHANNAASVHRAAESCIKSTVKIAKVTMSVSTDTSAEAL
Experiment: Inverse agonist activity at human CB1 receptor expressed in African green monkey COS7 cells co-expressing G-protein in presence of CP55940 by IP3 assay
Assay type: functional, cell membranes, Membrane
valueType: pIC50
The read-out pIC50 is expressed as -log10 of concentration in moles per litre.

Given the entry O=C(O)Cc1c(C(=O)N2CCC(Oc3ccc(Cl)cc3)CC2)nn(-c2ccccc2Cl)c1-c1ccc(Cl)cc1 , report its measured pIC50. 7.96

What value of pIC50 has been recorded for this entry: C[C@@H](NC(=O)c1nn(-c2ccccc2Cl)c(-c2ccc(Cl)cc2)c1Cc1nn[nH]n1)c1ccc(OC(F)(F)F)cc1 8.32

Consider the compound O=C(O)Cc1c(C(=O)N2CCC(Oc3ccc(F)cc3)CC2)nn(-c2ccccc2Cl)c1-c1ccc(Cl)cc1 and give its measured pIC50. 8.22

Find the recorded pIC50 belonging to O=C(O)Cc1c(C(=O)N2CCC(Oc3ccc(Cl)cc3F)CC2)nn(-c2ccccc2Cl)c1-c1ccc(Cl)cc1 and report it. 8.10

Entry O=C(O)Cc1c(C(=O)N2CCC(Oc3cc(F)cc(F)c3)CC2)nn(-c2ccccc2Cl)c1-c1ccc(Cl)cc1 : reported pIC50 = ? 8.10

Give the measured pIC50 of O=C(O)Cc1c(C(=O)N2CCC(Oc3ccc(OC(F)(F)F)cc3)CC2)nn(-c2ccccc2Cl)c1-c1ccc(Cl)cc1 . 8.00

Consider the compound C[C@@H](NC(=O)c1nn(-c2ccccc2Cl)c(-c2ccc(Cl)cc2)c1Cc1nn[nH]n1)c1ccc(C(F)(F)F)cc1 and give its measured pIC50. 8.48

May I ask what pIC50 has been recorded for O=C(O)Cc1c(C(=O)N2CCC(Oc3ccc(C(F)(F)F)cc3)CC2)nn(-c2ccccc2Cl)c1-c1ccc(Cl)cc1 ? 8.15
